These entries and their values trace back to patent US20160200831A1.

Molecular target: T1, human PAI-1 captured on immobilized human vitronectin (human, UniProt P04004 20-478)
T1 construct: non-covalent complex formed on the chip or plate; also called PAI-1/Vn complex; Vn captured hPAI-1
T1 sequence (chain, as listed by the source limits assumed, chain 1 of 2): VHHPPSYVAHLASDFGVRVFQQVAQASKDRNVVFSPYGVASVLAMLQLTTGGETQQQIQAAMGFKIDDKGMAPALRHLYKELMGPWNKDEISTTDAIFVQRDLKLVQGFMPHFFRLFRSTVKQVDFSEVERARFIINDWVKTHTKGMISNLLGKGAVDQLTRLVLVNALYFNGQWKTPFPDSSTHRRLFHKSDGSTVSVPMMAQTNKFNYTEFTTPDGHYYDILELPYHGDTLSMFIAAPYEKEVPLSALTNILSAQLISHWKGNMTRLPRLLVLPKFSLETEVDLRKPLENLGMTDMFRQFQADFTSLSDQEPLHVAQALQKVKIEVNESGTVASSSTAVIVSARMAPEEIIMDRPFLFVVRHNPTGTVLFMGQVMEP
T1 sequence (P04004 20-478 limits assumed, chain 2 of 2): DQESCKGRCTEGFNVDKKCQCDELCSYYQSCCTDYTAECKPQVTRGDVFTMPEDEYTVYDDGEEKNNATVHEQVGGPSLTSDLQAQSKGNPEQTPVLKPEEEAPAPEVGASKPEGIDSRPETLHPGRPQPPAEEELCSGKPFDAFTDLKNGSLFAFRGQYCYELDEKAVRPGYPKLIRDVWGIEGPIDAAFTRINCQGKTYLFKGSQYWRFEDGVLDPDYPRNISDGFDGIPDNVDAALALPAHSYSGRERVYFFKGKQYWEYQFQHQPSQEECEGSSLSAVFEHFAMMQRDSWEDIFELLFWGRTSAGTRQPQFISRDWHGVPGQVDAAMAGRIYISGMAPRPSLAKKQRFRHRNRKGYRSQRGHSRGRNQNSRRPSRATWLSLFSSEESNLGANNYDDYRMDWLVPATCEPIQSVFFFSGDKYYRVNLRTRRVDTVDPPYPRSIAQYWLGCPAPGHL
Assay: Biacore, hPAI-1 on vitronectin chip, 1:1 model
test readout: kon (M⁻¹ s⁻¹)
Quick reminder: number only, in M⁻¹ s⁻¹, skip the unit.

// below: answered binders
{"columns": ["binder", "test readout", "u", "measured"],
 "data": [
  ["A44-hv5 (antibody, V domains shown, humanized A44, HEK293; constant regions as for A44-hv1; also called LC2 x HC2b; variant 5) VH: EMTLKESGPTLVKPTQTLSLTCSVTGDSMTQGYWNWIRKFPGKALEYMGYITYSGSTYYNPSLKGRISITRNTSKNQYYLTLSSVTTVDTATYYCARWHYGSPYYFDYWGQGTTLTVSS VL: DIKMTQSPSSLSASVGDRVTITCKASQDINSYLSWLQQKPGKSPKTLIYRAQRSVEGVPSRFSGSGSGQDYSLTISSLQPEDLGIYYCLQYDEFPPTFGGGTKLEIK", "kon", "M⁻¹ s⁻¹", "2.72e+06"],
  ["A44-hv4 (antibody, V domains shown, humanized A44, HEK293; constant regions as for A44-hv1; also called LC1a x HC2b; variant 4) VH: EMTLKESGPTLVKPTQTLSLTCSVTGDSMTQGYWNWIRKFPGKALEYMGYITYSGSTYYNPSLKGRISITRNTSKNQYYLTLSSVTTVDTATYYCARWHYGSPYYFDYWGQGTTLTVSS VL: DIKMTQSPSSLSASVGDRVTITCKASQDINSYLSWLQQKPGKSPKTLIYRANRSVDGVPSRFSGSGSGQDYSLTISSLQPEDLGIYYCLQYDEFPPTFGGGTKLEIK", "kon", "M⁻¹ s⁻¹", "4.59e+06"]
]}

Ask: Report kon for A44-hv11 (antibody, V domains shown, humanized A44, HEK293; compared with a human IgG1 isotype control; constant regions as for A44-hv1; also called A44V11; A44v11) VH: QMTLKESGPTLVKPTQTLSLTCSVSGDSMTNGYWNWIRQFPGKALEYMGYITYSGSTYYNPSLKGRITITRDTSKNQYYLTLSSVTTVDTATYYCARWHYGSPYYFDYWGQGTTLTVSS VL: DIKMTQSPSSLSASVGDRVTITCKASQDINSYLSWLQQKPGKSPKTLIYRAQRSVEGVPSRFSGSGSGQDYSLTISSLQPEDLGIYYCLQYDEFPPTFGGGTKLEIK please.
Result: 7.66e+06
